For each entry below, report its Ka value.
- assay-notes: Binding affinity to bradykinin
The answer should read as a number with its unit following.

So what's the measured Ka for this one? `Oc1cc(O)c2c(c1)O[C@H](c1ccc(O)c(O)c1)[C@H](O)[C@H]2c1c(O)cc(O)c2c1O[C@H](c1ccc(O)c(O)c1)[C@H](O)C2`
8.2 M⁻¹

Now this one: `O=C(OC[C@H]1O[C@@H](OC(=O)c2cc(O)c(O)c(O)c2)[C@H](OC(=O)c2cc(O)c(O)c(O)c2)[C@@H](O)[C@@H]1OC(=O)c1cc(O)c(O)c(O)c1)c1cc(O)c(O)c(O)c1`
20.5 M⁻¹

Now this one: `O=C(OC[C@H]1O[C@@H](OC(=O)c2cc(O)c(O)c(O)c2)[C@H](OC(=O)c2cc(O)c(O)c(O)c2)[C@@H](OC(=O)c2cc(O)c(O)c(O)c2)[C@@H]1OC(=O)c1cc(O)c(O)c(O)c1)c1cc(O)c(O)c(O)c1`
33.7 M⁻¹

Now this one: `O=C(OC[C@H]1O[C@@H](OC(=O)c2cc(O)c(O)c(O)c2)[C@H](O)[C@@H](OC(=O)c2cc(O)c(O)c(O)c2)[C@@H]1O)c1cc(O)c(O)c(O)c1`
4.4 M⁻¹

From: ChEMBL document CHEMBL1158188
